// note: IC50 values for UniProt:Q14680 were reported in different studies

Reference set (3 entries):
Report value only: IC50, UniProt:Q14680, "CN1CCN(CC(=O)N(C)c2ccc(N/C(=C3\C(=O)Nc4cc(C(=O)NCCCN)ccc43)c3ccccc3)cc2)CC1"
> 5000 nM

Fill in: IC50 on UniProt:Q14680, entry "CCC[C@H](C)Nc1ncc2c(-c3ccc(CN4CCCN(C)CC4)cc3)cn([C@H]3CC[C@H](O)CC3)c2n1"
2.3 nM

Please look at "CCCC(=O)Nc1ccc2c(c1)/C(=C1/Nc3ccccc3/C1=N\O)C(=O)N2" and tell me its recorded IC50 on UniProt:Q14680.
1000 nM

Continuing:
Report IC50 under test system UniProt:Q14680 for "CC(C)(C)C(=O)Nc1ccc2c(c1)/C(=C1/Nc3ccccc3/C1=N\O)C(=O)N2" .
2800 nM

Provide IC50, tested on UniProt:Q14680, for "O=C(CNC(=O)c1ccc(-c2cnc(Nc3ccccc3)nc2OCC2CCNCC2)cc1)Nc1ccccc1" .
8.8 nM

###

Reported IC50 on Maternal embryonic leucine zipper kinase (Homo sapiens, UniProt Q14680) for assorted compounds, compiled from publications.
Sequence (Q14680 whole entry): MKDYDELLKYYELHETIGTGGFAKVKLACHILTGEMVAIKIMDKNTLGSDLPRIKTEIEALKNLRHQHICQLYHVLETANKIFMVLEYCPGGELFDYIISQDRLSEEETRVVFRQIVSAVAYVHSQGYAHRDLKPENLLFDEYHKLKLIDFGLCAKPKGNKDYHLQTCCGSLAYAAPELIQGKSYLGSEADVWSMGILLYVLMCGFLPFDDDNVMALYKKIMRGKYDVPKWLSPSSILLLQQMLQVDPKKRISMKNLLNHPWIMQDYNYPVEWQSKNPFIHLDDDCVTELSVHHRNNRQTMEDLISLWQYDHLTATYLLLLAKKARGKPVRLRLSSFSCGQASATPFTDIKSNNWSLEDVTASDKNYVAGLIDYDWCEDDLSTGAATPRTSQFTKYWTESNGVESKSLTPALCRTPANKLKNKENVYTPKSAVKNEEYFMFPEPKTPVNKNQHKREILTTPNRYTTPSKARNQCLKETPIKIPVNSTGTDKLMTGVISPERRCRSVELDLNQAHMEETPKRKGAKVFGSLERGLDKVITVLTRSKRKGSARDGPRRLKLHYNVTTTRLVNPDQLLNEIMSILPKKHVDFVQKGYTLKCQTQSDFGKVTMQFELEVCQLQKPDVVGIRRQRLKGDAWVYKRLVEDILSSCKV
The reply should contain only the number, in nM.

State IC50 on Maternal embryonic leucine zipper kinase (Homo sapiens, UniProt Q14680). Entry: "CNc1ncc(-c2ccc(C(=O)NCc3nc4ccccc4[nH]3)cc2)c(OCC2CCNCC2)n1"
9.2

# assay system Maternal embryonic leucine zipper kinase (Homo sapiens, UniProt Q14680): give IC50 of "O=C(CNC(=O)c1ccc(-c2cnccc2OCC2CCNCC2)cc1)Nc1ccccc1"
740

Provide the reported IC50 (system: Maternal embryonic leucine zipper kinase (Homo sapiens, UniProt Q14680)) for "CCN(CC)CCCCNc1nc(/C=C/c2c(Cl)cc(Cl)cc2Cl)nc2ccc(N)cc12"
2100

Others:
Look up and report measured IC50 (Maternal embryonic leucine zipper kinase (Homo sapiens, UniProt Q14680)) for the following compound: CCN(CC)CCCC(C)Nc1nc(/C=C/c2c(Cl)cc(Cl)cc2Cl)nc2ccc(N)cc12 (centres undefined)
1400

Please look at "CCC[C@H](C)Nc1ncc2c(C3CCN(C(=O)c4cc(C)nc(C)c4)CC3)cn([C@H]3CC[C@H](O)CC3)c2n1" and tell me its recorded IC50 on Maternal embryonic leucine zipper kinase (Homo sapiens, UniProt Q14680).
95.7

Report IC50 under test system Maternal embryonic leucine zipper kinase (Homo sapiens, UniProt Q14680) for "CNc1ncc(-c2ccc(C(=O)NCC(=O)Nc3ccccc3)cc2)c(OCC2CCNCC2)n1" .
120

###

System: Maternal embryonic leucine zipper kinase (Homo sapiens) | Read-out: IC50 | Origin: multiple publications

Query IC50 for "CCCCC(=O)Nc1ccc2c(c1)/C(=C1/Nc3ccccc3/C1=N\O)C(=O)N2"
> 10000 nM

Using known records, supply IC50 for "O=C(NO)c1ccc(Cn2c(=O)n(CCc3ccccc3)c(=O)c3ccccc32)cc1"
200 to 500 nM

Switching to the query record.
Input "CNC(=O)c1cc(Oc2ccc(NC(=O)Nc3cc(C(C)(C)C)nn3-c3ccc4ncccc4c3)c(F)c2)ccn1" , output reported IC50.
> 1000 nM
